target entity: norepinephrine (NE) transporter (Rattus norvegicus, UniProt Q63380)
Sequence (Q63380 1-617): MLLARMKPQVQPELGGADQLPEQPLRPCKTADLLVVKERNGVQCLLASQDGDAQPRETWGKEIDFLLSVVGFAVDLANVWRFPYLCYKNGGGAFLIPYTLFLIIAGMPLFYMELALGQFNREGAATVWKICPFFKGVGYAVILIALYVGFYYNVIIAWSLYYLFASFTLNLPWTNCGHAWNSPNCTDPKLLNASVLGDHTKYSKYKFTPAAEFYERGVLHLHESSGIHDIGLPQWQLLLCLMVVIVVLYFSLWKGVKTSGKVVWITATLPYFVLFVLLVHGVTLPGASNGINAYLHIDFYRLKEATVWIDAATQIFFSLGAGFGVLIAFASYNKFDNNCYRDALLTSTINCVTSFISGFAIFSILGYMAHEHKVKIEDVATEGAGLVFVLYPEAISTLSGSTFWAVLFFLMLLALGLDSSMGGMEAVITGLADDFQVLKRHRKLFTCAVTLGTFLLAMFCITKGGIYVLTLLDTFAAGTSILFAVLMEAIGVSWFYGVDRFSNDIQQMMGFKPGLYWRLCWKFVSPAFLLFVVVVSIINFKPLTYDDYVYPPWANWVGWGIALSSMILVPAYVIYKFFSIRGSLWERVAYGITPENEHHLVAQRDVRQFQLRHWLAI
pKi: −log10 of the molar value.
satisfied means recorded pKi is 6 or above; not satisfied means it is below 6.

Request: Has CCC(=O)[C@H]1[C@@H](c2ccc(C=C(C)C)cc2)C[C@@H]2CC[C@H]1N2C (relative stereo) a recorded pKi greater than or equal to 6?
Result: not satisfied

Request: How about this compound: C=C(CC)c1ccc(C2CC3CCC(N3)C2C(=O)CC)cc1 (stereo not drawn)
Result: satisfied

Request: How about this compound: "C/C=C/c1ccc([C@H]2C[C@@H]3CC[C@H]([C@H]2C(=O)CC)N3C)cc1"
Result: satisfied

Request: How about this compound: CCC(=O)[C@H]1[C@@H](c2ccc(/C=C/I)cc2)C[C@@H]2CC[C@H]1N2 (relative stereo)
Result: satisfied

Request: How about this compound: CCC(=O)[C@H]1[C@@H](c2ccc(/C=C(\C)I)cc2)C[C@@H]2CC[C@H]1N2 (relative stereo)
Result: satisfied

Request: How about this compound: CC=Cc1ccc(C2CC3CCC(N3)C2C(=O)CC)cc1 (stereo not drawn)
Result: satisfied

Request: How about this compound: CCC(=O)[C@H]1[C@@H](c2ccc(-c3cccn3C)cc2)C[C@@H]2CC[C@H]1N2 (relative stereo)
Result: not satisfied
